Data credit: patent US8426588B2

assayed_system: integrin α4β7 (Homo sapiens, UniProt P13612+P26010)
Construct: lymphoma cell strain RPMI-8866 of human B cells, known to express integrin α4β7; endogenous in cells
measurement_description: VCAM antagonistic activity (VCAM-1/α4β7 binding assay), RPMI-8866 cells binding to VCAM-1
settings: RPMI-8866 human B lymphoma cells binding to recombinant human VCAM-1; binding buffer with 4 mM MnCl2
observation_type: IC50 (nM)

I = CC(C)Cn1c(=O)n(-c2ccc(C[C@H](NC(=O)c3c(Cl)cccc3Cl)C(=O)O)cc2)c(=O)c2cc([N+](=O)[O-])ccc21 [Example 61]
II = O=C(N[C@@H](Cc1ccc(-n2c(=O)c3ccccc3n(Cc3ccc(Cl)cc3)c2=O)cc1)C(=O)O)c1c(Cl)cccc1Cl [Example 117]
III = CCn1c(=S)n(-c2ccc(C[C@H](NC(=O)c3c(Cl)cccc3Cl)C(=O)O)cc2)c(=O)c2cc([N+](=O)[O-])ccc21 [Example 67]
Arrange by IC50, high to low. State the ranking by listing the labels in the requested order. I, II, III
(I: 42 nM, II: 19 nM, III: 2.2 nM)

* * *

assayed_system: integrin α4β7 (Homo sapiens, UniProt P13612+P26010)
Construct: lymphoma cell strain RPMI-8866 of human B cells, known to express integrin α4β7; endogenous in cells
Sequence (P13612 34-1032): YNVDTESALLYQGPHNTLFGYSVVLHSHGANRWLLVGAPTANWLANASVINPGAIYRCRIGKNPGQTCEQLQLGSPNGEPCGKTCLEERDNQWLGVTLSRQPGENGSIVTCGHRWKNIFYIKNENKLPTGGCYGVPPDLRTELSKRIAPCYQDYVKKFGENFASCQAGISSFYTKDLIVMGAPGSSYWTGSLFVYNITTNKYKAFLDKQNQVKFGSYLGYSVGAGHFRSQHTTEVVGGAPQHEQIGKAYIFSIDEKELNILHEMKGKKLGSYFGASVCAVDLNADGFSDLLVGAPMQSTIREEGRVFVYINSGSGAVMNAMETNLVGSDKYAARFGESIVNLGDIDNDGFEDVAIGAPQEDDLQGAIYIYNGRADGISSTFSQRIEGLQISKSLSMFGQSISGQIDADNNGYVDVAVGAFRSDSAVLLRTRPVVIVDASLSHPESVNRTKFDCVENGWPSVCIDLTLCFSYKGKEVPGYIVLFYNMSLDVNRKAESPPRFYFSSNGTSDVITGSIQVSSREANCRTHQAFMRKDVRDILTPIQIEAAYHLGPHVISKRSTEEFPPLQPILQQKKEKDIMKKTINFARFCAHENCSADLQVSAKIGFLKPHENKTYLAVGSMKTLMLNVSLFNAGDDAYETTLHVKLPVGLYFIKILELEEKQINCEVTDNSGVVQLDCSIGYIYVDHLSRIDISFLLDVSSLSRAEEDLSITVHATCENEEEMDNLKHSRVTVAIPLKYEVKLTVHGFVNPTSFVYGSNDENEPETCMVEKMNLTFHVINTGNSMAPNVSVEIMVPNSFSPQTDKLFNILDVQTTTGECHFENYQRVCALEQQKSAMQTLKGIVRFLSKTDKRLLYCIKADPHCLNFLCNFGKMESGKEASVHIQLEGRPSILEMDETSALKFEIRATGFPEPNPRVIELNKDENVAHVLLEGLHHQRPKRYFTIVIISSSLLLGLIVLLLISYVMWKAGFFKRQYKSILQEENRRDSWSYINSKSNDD
Sequence (P26010 20-798): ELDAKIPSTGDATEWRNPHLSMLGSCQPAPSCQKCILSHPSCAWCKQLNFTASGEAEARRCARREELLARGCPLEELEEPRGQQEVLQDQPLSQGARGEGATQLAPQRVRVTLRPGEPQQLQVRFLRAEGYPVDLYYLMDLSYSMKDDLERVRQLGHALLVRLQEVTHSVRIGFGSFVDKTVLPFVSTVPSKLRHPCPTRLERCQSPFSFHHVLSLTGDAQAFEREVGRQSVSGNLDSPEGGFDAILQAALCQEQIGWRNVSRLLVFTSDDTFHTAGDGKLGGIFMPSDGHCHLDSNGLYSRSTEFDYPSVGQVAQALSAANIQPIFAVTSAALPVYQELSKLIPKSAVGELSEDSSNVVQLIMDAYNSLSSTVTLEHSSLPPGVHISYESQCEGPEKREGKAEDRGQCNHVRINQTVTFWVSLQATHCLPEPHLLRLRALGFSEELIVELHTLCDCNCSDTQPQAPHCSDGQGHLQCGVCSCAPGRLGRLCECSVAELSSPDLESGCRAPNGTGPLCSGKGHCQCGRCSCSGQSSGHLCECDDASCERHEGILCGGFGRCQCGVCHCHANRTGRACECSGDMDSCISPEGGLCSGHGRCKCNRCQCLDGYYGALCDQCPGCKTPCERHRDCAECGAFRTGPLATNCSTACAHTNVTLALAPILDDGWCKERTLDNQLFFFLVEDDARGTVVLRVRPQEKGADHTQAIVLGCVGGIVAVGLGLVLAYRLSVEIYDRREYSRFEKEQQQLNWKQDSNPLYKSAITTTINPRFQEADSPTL
measurement_description: VCAM antagonistic activity (VCAM-1/α4β7 binding assay), RPMI-8866 cells binding to VCAM-1
settings: RPMI-8866 human B lymphoma cells binding to recombinant human VCAM-1; binding buffer with 4 mM MnCl2
observation_type: IC50 (nM)

a = Cc1cccc2c1c(=O)n(-c1ccc(C[C@H](NC(=O)c3c(Cl)cccc3Cl)C(=O)O)cc1)c(=O)n2Cc1ccccc1 [Example 97]
b = Cn1c(=O)n(-c2ccc(C[C@H](NC(=O)c3c(Cl)cccc3Cl)C(=O)O)cc2)c(=O)c2cc([N+](=O)[O-])ccc21 [Example 63]
Which entry shows the lesser value of IC50 here, a or b ? Kindly give the label for the entry you pick. b
(b: 1.3 nM, a: 13 nM)

1 = COc1cccc(OC)c1C(=O)N[C@@H](Cc1ccc(-n2c(=O)c3ccccc3n(C)c2=O)cc1)C(=O)O [Example 9]
2 = CCCCc1nc2ccccc2c(=O)n1-c1ccc(C[C@H](NC(=O)c2c(Cl)cccc2Cl)C(=O)O)cc1 [Example 34]
Which entry shows the lesser value of IC50 here, 1 or 2 ? Kindly give the label for the entry you pick. 2

1 = Cn1c(=O)n(-c2ccc(C[C@H](NC(=O)c3c(Cl)cccc3Cl)C(=O)O)cc2)c(=O)c2cc(Cl)ccc21 [Example 183]
2 = Cc1cccc2c(=O)n(-c3ccc(C[C@H](NC(=O)c4c(Cl)cccc4Cl)C(=O)O)cc3)c(=O)n(C)c12 [Example 186]
Which entry shows the lesser value of IC50 here, 1 or 2 ? Kindly give the label for the entry you pick. 1

* * *

assayed_system: integrin α4β1 (Homo sapiens, UniProt P05556+P13612)
Construct: cell strain Jurkat (ATCC TIB-152) of human T cells, known to express integrin α4β1; endogenous in cells
measurement_description: VCAM antagonist activity (VCAM-1/α4β1 binding assay), Jurkat cells binding to VCAM-1
settings: Jurkat human T cells binding to recombinant human VCAM-1; read-out: VCAM antagonistic activity (IC50) α4β1
pIC50: −log10 of the molar value.
observation_type: pIC50

- O=C(N[C@@H](Cc1ccc(-n2c(=O)c3cc([N+](=O)[O-])ccc3n(C3CC3)c2=S)cc1)C(=O)O)c1c(Cl)cccc1Cl [Example 68]: 6.46

a = Nc1ccc2c(=O)n(-c3ccc(C[C@H](NC(=O)c4c(Cl)cccc4Cl)C(=O)O)cc3)c(=O)oc2c1 [Example 142]
b = O=C(N[C@@H](Cc1ccc(-n2nnc3ccccc3c2=O)cc1)C(=O)O)c1c(Cl)cccc1Cl [Example 90]
Which entry shows the lesser value of pIC50 here, a or b ? Kindly give the label for the entry you pick. b
(b: 6.29, a: 6.68)

* * *

assayed_system: integrin α4β7 (Homo sapiens, UniProt P13612+P26010)
Construct: lymphoma cell strain RPMI-8866 of human B cells, known to express integrin α4β7; endogenous in cells
measurement_description: VCAM antagonistic activity (VCAM-1/α4β7 binding assay), RPMI-8866 cells binding to VCAM-1
settings: RPMI-8866 human B lymphoma cells binding to recombinant human VCAM-1; binding buffer with 4 mM MnCl2
Procedure: VCAM Antagonistic Activity (VCAM-1/α4β7 Binding Assay) The capacity of a test substance antagonistic to the binding of lymphoma cell strain RPMI-8866 of human B cells, known to express integrin α4β7, to VCAM-1 was determined. […] RPMI-8866 cells were washed with DMEM twice and incubated in Dulbecco modified Eagle medium containing 10 μg/ml of Calcein-AM (Wako Pure Chemical Industries, Ltd.) (SIGMA, hereinafter referred to as “DMEM”) in dark place at 37° C. for 30 minutes to label with fluorescence. […]
observation_type: IC50 (nM)

a = COc1cc2[nH]c(=O)n(-c3ccc(C[C@H](NC(=O)c4c(Cl)cccc4Cl)C(=O)O)cc3)c(=O)c2cc1OC
b = Nc1ccc2c(=O)n(-c3ccc(C[C@H](NC(=O)c4c(Cl)cccc4Cl)C(=O)O)cc3)c(=O)oc2c1
Identify the entry with the larger IC50. Options: a and b Kindly give the label for the entry you pick. a
